system.tested: mouse TMEM16A mutant R515A (Mus musculus, UniProt Q8BHY3, R515A)
Construct: expressed in transfected cells; host or cells: HEK293T
protocol.details: Inside-out patch recording of 1PBC block, mutant R515A
Type: cell-based
setup.conditions: R515A; V 140 mV
pIC50: −log10 of the molar value.

>  <compound>
N#Cc1c(C(F)(F)F)cc(O)n2c1nc1ccccc12 [1PBC]

>  <pIC50>
4.07

$$$$

----------
system.tested: wild-type mouse TMEM16A (Mus musculus)
Construct: expressed in transfected cells; host or cells: HEK293T
Sequence (Q8BHY3 1-960): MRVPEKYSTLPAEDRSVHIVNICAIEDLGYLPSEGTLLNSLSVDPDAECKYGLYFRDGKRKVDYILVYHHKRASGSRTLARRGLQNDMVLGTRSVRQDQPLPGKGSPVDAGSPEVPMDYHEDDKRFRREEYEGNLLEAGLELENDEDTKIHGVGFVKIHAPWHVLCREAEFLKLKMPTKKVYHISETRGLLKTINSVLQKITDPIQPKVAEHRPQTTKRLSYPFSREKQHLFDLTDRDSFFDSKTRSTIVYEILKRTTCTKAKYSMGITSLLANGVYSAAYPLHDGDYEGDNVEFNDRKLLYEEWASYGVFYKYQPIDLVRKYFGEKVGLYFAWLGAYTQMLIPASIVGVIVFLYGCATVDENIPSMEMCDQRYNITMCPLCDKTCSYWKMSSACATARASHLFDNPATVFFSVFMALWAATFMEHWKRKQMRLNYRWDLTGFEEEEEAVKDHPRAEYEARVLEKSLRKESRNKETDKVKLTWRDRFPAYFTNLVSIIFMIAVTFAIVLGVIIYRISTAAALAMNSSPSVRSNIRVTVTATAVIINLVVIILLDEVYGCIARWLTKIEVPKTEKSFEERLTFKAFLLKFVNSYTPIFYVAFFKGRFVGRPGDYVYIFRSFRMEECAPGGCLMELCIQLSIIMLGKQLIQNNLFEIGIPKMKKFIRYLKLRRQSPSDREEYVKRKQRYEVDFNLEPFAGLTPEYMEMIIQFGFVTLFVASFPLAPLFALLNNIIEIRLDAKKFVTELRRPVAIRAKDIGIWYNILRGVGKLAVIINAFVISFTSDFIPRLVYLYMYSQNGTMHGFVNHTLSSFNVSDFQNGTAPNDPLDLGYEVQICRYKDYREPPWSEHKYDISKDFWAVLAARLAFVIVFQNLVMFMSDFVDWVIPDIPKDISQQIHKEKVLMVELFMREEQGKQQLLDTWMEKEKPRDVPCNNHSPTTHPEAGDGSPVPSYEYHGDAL
protocol.details: Inside-out patch recording of 1PBC block, wild-type TMEM16A
Assay type: cell-based
setup.conditions: -120 mV; 2 µM Ca2+
pIC50: −log10 of the molar value. “And” between values parts separate entries of the source, which are not always exact repeats. Equal values may be shown once.
observable: pIC50

>  <molecule>
N#Cc1c(C(F)(F)F)cc(O)n2c1nc1ccccc12 [1PBC]

>  <observable>
pIC50

>  <observed.value>
4.76 and 4.77

$$$$

----------
system.tested: mouse TMEM16A mutant V511A (Mus musculus, UniProt Q8BHY3, V511A)
Construct: expressed in transfected cells; host or cells: HEK293T
protocol.details: Inside-out patch recording of 1PBC block, mutant V511A
Format: cell-based
setup.conditions: V511A; V 0 mV
pIC50: −log10 of the molar value.

>  <compound>
N#Cc1c(C(F)(F)F)cc(O)n2c1nc1ccccc12 [1PBC]

>  <pIC50>
4.68

$$$$

These measurements were taken from paper PMC9120017.
